Tested on: barnyardgrass (Echinochloa crus-galli)
Assay: Test A preemergence
Format: in vivo
Conditions: 125 g ai/ha, preemergence; 0 to 100 scale (0 no effect, 100 complete control)
Is Plant response rating, Barnyardgrass at least 70? Then Y. If not, N.

Use these answered entries as a reference point.
                                   compound  group_label
0  CN1CC(c2ccc3c(c2)OC(F)(F)O3)C(C(=O)Nc2ccccc2S(C)(=O)=O)C1=O (stereo not shown)            Y
1  Cc1ccc(C2CNC(=O)C2C(=O)Nc2ccc(F)c(C)c2F)cc1F (stereo not shown)            Y
2  CC(C)Oc1cccc(C2CN(C)C(=O)C2C(=O)Nc2ccc(F)cc2F)c1 (stereo not shown)            N
3  C=C(Cl)CN1CC(c2cccc(C(F)(F)F)c2)C(C(=O)Nc2cccc(F)c2F)C1=O (stereo not shown)            N

Task: Reported Plant response rating, Barnyardgrass at or above 70? CC(=O)c1ccccc1NC(=O)C1C(=O)NCC1c1ccc(F)c(F)c1 (stereo not shown)
Result: N

Task: Determine whether measured Plant response rating, Barnyardgrass meets or exceeds 70 for Cc1ccc(C2CNC(=O)C2C(=O)Nc2ccc(F)cc2F)cc1F (racemic)
Result: Y

* * *

Tested on: giant foxtail (Setaria faberii)
Assay: Test A postemergence
Type: in vivo
Conditions: Setaria faberi, post-emergence, 240 h, 125 g ai/ha, postemergence; visual injury on 0 to 100 scale (0 no effect, 100 complete control), approx. 10 d; read-out: Foxtail, Giant plant response rating
result.type: pest or weed control at 125 g/ha
Remember to quote the unit after the number.

// below: answered compounds
>>> df
                                   compound  reading
0  O=C(Nc1ccc(F)c(F)c1F)[C@H]1C(=O)N(O)CC[C@@H]1c1ccc(C(F)(F)F)cc1       0%
1  CN1C[C@H](c2cc(C(F)F)cs2)[C@@H](C(=O)Nc2ccccc2F)C1=O      90%

# pest or weed control at 125 g/ha (compound: `CN1C[C@H](c2csc3c2CCCC3)[C@@H](C(=O)Nc2ccc(F)c(F)c2F)C1=O` ) is 20%

// pest or weed control at 125 g/ha lookup, compound = `C=C(C)c1cccc([C@H]2CN(C)C(=O)[C@@H]2C(=O)Nc2cccc(F)c2C)c1` , result: 60%

Record `CC(C)Oc1cc([C@H]2CN(C)C(=O)[C@@H]2C(=O)Nc2ccccc2F)ccc1F` , field pest or weed control at 125 g/ha: 90%

pest or weed control at 125 g/ha for `Cc1c(F)cccc1NC(=O)[C@H]1C(=O)NC[C@@H]1c1cc(F)c(F)c(F)c1` is 90%

// sample `Cc1ccc([C@H]2CN(C)C(=O)[C@@H]2C(=O)Nc2cnccc2C(F)(F)F)cc1` , its pest or weed control at 125 g/ha was 90%

pest or weed control at 125 g/ha measured on `O=C1NC[C@H](c2ccc(F)c(OC(F)(F)C(F)(F)Br)c2)[C@H]1C(=O)Nc1ccccc1F` = 30%

Field pest or weed control at 125 g/ha (entry `CN1C[C@H](c2csc3c2CCOC3)[C@@H](C(=O)Nc2ccccc2S(C)(=O)=O)C1=O` ) reads 0%

pest or weed control at 125 g/ha in this record for `Cc1cc([C@H]2CN(C)C(=O)[C@@H]2C(=O)Nc2ccccc2S(C)(=O)=O)ccc1Br` : 80%
